Origin of the recorded values: PubChem BioAssay (NCI)

# Tested on: SR leukemia
# ASSAY_PROCEDURE: NCI-60 one-dose screen, 48 h (100 = growth as untreated, 0 = no growth, -100 = all killed)
# CONDITION_NOTES: 10 µM unless noted
About 83,000 compounds went through this panel and 20% of them were active in at least one assay; those are over-represented in the sample as a whole.
Consider the following compounds and their measured growth readings.
VALUE_TYPE: growth (%)

| INPUT_SMILES | VALUE_TYPE | REPORTED_VALUE |
| --- | --- | --- |
| O=C1C=Cc2ncccc2C1=O | growth | 12.2 |
| NC1(N)C=CC2=C(C=C1)C1(N)C3=C(C=CC(N)(N)C=C3)N2C2(N)C3=C(C=CC(N)(N)C=C3)N1C1=C2C=CC(N)(N)C=C1 | growth | 79.2 |
| CCN1CCN(C(=O)[C@]23CCC(C)(C)C[C@@H]2C2=CC[C@@H]4[C@@]5(C)C/C(=C/c6ccncc6)C(=O)C(C)(C)[C@@H]5CC[C@@]4(C)[C@]2(C)CC3)CC1 | growth | -29.1 |
| O=c1[nH]c2c3ccncc3cc(-c3cccc(Cl)c3)c2c2cnccc12 | growth | 14.3 |
| C=C(C)[C@@H]1CC[C@]2(C(=O)OC)CC[C@]3(C)[C@H](CC[C@@H]4[C@@](C)(CC/C(N)=N/O)[C@H](C(=C)C)CC[C@]43C)[C@@H]12 | growth | 69.2 |
| C[C@H]1[C@@H]2[C@H]3CC[C@@H]4[C@@]5(C)Cc6c([nH]c7ccccc67)C(C)(C)[C@@H]5CC[C@@]4(C)[C@]3(C)CC[C@]23CO[C@]1(C)[C@@H](C(=O)/C=C/c1ccccn1)C3 | growth | 55.6 |
| Cn1cc(-c2csc(-c3cn(CCCN4CCCCC4)c4ccccc34)n2)c2cccnc21 | growth | -50.7 |
| Oc1cccc2ccc(N/N=C/c3cc(CN4CCCCC4)c(O)c4ncccc34)nc12 | growth | -12.7 |
| O=C1/C(=C\c2ccco2)SC(=S)N1CCc1ccc(O)cc1 | growth | 95.7 |
| NC1=NN=C2N(N)C(=O)c3cnn(-c4ccccc4)c3N2c2nc(-c3ccccc3)cc(-c3ccccc3)c21 | growth | 103 |
| CC(C)(C)c1nc(-c2ccc(O)c(O)c2)cs1 | growth | 26.9 |
| CC(C)/C=C/CC[C@](C)(O)[C@H]1CC[C@]2(C)[C@@H]1CC[C@@H]1[C@@]3(C)C/C(=C/c4cccc(C(F)(F)F)c4)C(=O)C(C)(C)[C@@H]3CC[C@]12C | growth | 82.6 |
| CN(C)c1ccc(-c2ccc(-c3ccc(C(=N)N)c(F)c3)s2)cc1 | growth | 1.32 |
| CCSc1sc(-c2ccc(C)cc2)nc1[P+](c1ccccc1)(c1ccccc1)c1ccccc1 | growth | -17.9 |
| Cc1ccc(-c2nc([P+](c3ccccc3)(c3ccccc3)c3ccccc3)c(N3C[C@H]4C[C@H](C3)c3cccc(=O)n3C4)o2)cc1 | growth | 87.9 |
| COc1cc(-c2c(C#N)c(-c3cccs3)nc3c2c(-c2ccccc2)nn3-c2ccccc2)ccc1O | growth | 60.5 |

---

# Tested on: SNB-19 CNS
# ASSAY_PROCEDURE: NCI-60 one-dose screen, 48 h
# CONDITION_NOTES: 10 µM unless noted
This is part of a sample that, as a whole, favours compounds with a hit. Of some 83,000 tested, about 20% had one in any assay. Calls of active or inactive are those of the source. Rule for the calls: active = growth percent below 10; inactive = the rest.
Possible outcomes: YES (active), NO (inactive)

| COMPOUND | CLASS |
| --- | --- |
| Cn1c(=O)c2c(ncn2CC(=O)Nc2ccc(S(N)(=O)=O)cc2)n(C)c1=O | NO |
| CCN(CC)c1ccc(/C=C/c2cc(C)c3ccccc3n2)cc1 | NO |
| CN1CCN(c2ccc3nc(-c4[nH]ncc4Nc4ncnc5c4OCCCN5)[nH]c3c2)CC1 | YES |
| N#CC1=C(N)Oc2c(c(N)nn2-c2ccccc2)C1c1ccc(Cl)cc1Cl (stereo not given) | NO |
| C[C@@H]1CCCCCCCCC[C@H](O)C(=O)C[C@@H](SC[C@@H](O)C(=O)O)C(=O)O1 | NO |
| CCc1cccc(CC)c1NC(=O)c1sc2nc3c(cc2c1N)CCCC3 | NO |
| COc1cnc2c(c1)C(=O)c1c-2n(CCCNCCN2CCOCC2)c(=O)c2cc([N+](=O)[O-])ccc12 | NO |
| CC(=O)Nc1cc(F)cc(C(F)(F)F)c1Cl | NO |
| COc1cccc(-c2nn(-c3ccccc3)cc2-c2ccnc(NCCCNS(=O)(=O)c3ccccc3)c2)c1 | NO |
| Fc1ccc(NCc2nnc(-c3ccc(Cl)cc3)o2)cc1 | NO |

---

# Tested on: MALME-3M melanoma
# ASSAY_PROCEDURE: NCI-60 one-dose screen, 48 h (100 = growth as untreated, 0 = no growth, -100 = all killed)
# CONDITION_NOTES: 10 µM unless noted
Compounds without any hit were thinned out: in the full panel of roughly 83,000, 20% have a hit.
Criterion: growth meeting or surpassing 90%. Met: rule met. Not met: rule not met.

| MOLECULE | CLASS |
| --- | --- |
| COC1=C(Br)C(=O)C(OC)=C(Br)C1=O | rule met |
| COc1ccc(C2NC(=O)Nc3ccccc32)c(OC)c1 (stereo unspecified) | rule not met |
| CCOC(=O)C/C(=C\c1ccccc1)C(C)=O | rule met |
| N#CCCCCCn1c2ccccc2c2c3c(c4c5ccccc5n(CCCCCC#N)c4c21)C(=O)N(O)C3=O | rule not met |
| CCc1ccc(-c2ccc(Nc3ccccc3)nn2)cc1S(N)(=O)=O | rule not met |
| Cc1cc(N(CCCNc2ccnc3cc(Cl)ccc23)Cc2ccco2)nc(N2CCOCC2)n1 | rule met |
| COc1cccc(-c2nn(-c3ccccc3)cc2-c2ccnc(NCCCNS(=O)(=O)c3ccc(Cl)cc3)c2)c1 | rule not met |
| O=S(=O)(NCCNc1cc(-c2cn(-c3ccccc3)nc2-c2cccc(O)c2)ccn1)c1ccc(F)cc1 | rule not met |
| COc1ccc(-c2cc(-c3cccs3)n(N=O)c(=O)c2C#N)cc1 | rule met |
| Cc1ccncc1C(=O)O | rule met |
| Nc1c2c(nc3ccc(Cl)cc13)CC(c1ccccc1)CC2=O (stereo unspecified) | rule not met |

---

Consider the following compounds and their measured growth readings.
# System: NCI-H23 lung
# ASSAY_PROCEDURE: NCI-60 one-dose screen, 48 h (100 = growth as untreated, 0 = no growth, -100 = all killed)
# CONDITION_NOTES: 10 µM unless noted
The panel holds about 83,000 compounds, 20% with a hit somewhere; the sample as a whole holds those more often.

| COMPOUND | growth (%) |
| --- | --- |
| Cn1c(=O)c2c(ncn2CCC(=O)Nc2ccc(F)cc2)n(C)c1=O | 100 |
| O=C(/C=C/c1ccc2ccccc2c1)Nc1ncc(Cc2ccccc2)s1 | 80.3 |
| CC(C)(C)c1ccc(OP(=S)(N/N=C/c2ccccc2O)Oc2ccc(C(C)(C)C)cc2)cc1 | 58.1 |
| O=S(=O)(NCCNc1cc(-c2cn(-c3ccccc3)nc2-c2cccc(O)c2)ccn1)c1ccccc1 | 57.4 |
| C(=C\c1c[nH]c2ccccc12)/c1ccc2ccccc2n1 | 91.3 |
| CN(C)c1ccc(C(=O)c2ccc(N(C)C)c(N)c2)cc1N | 40 |
| COc1cc(-c2cc(-c3nc4ccccc4[nH]3)[nH]n2)cc(OC)c1OC | 41 |
| CC(=O)OC[C@]12CC[C@@H](/C(C)=N/O)[C@@H]1[C@H]1CC[C@@H]3[C@@]4(C)CCCNC(C)(C)[C@@H]4CC[C@@]3(C)[C@]1(C)CC2 | 86.2 |
| CCCC(=O)N1CCCCC1CC (stereo not given) | 111 |
| Nc1nc(Br)nc2c1ncn2C1CC(O)C(CO)O1 (stereo not given) | 20.2 |

---

# Tested on: HT29 colon
# ASSAY_PROCEDURE: NCI-60 one-dose screen, 48 h (100 = growth as untreated, 0 = no growth, -100 = all killed)
# CONDITION_NOTES: 10 µM unless noted
This is part of a sample that, as a whole, favours compounds with a hit. Of some 83,000 tested, about 20% had one in any assay.
Field: label. Allowed values: Y (growth < 60%) or N (growth >= 60%).

| MOLECULE | SYSTEM | CLASS |
| --- | --- | --- |
| CC(C)(C)c1nc(-c2ccc(O)c(O)c2)cs1 | HT29 colon | N |
| Nc1ccccc1NC(=O)c1ccc(CN2CCC/C(=C\c3ccccn3)C2=O)cc1 | HT29 colon | Y |
| Cc1cc(N2CCCCC2)nc(N(CCNc2ccnc3cc(Cl)ccc23)Cc2ccco2)n1 | HT29 colon | Y |
| Cc1ccc(N(CC(=O)Nc2ccc(S(=O)(=O)NC3CCN(C)CC3)cc2)S(=O)(=O)c2ccc(Cl)cc2)cc1 | HT29 colon | Y |
| C#CCn1c(C)cc(C)c(C#N)c1=O | HT29 colon | N |
| COC(c1ccccc1)(c1ccccc1)c1ccccc1 | HT29 colon | N |
| CNC(=O)c1cc(Oc2ccc3nc(NC(=O)Nc4ccc(Cl)cc4)sc3c2)ccn1 | HT29 colon | N |
| COc1ccc2c(c1)c(-c1nc(-c3c[nH]c4ncccc34)cs1)cn2CCNC(=O)OC(C)(C)C | HT29 colon | N |
| NC1=NN(c2ccccc2)C(=O)/C1=C/c1ccc(Cl)cc1 | HT29 colon | N |
| CCCC(=O)N1CCCCC1CC (stereo not drawn) | HT29 colon | N |
| COc1ccc2c(c1)c(-c1nc(-c3c[nH]c4ncccc34)cs1)cn2C | HT29 colon | Y |
| CCN1CCN(C(=O)[C@]23CCC(C)(C)C[C@@H]2C2=CC[C@@H]4[C@@]5(C)C/C(=C/c6cccnc6)C(=O)C(C)(C)[C@@H]5CC[C@@]4(C)[C@]2(C)CC3)CC1 | HT29 colon | Y |
| Cc1ccccc1-c1nc(C(Cl)Cl)nc2cc(-c3ccccc3)nn12 | HT29 colon | Y |
| c1cc(N2CCCC2)c2nc(-c3[nH]ncc3Nc3ncnc4[nH]ccc34)[nH]c2c1 | HT29 colon | Y |
| COC(=O)C(Cc1ccccc1)n1cc(COc2nc(Cl)nc(Nc3ccc(Cl)cc3)n2)nn1 (stereo not drawn) | HT29 colon | N |
| C#Cc1cc2c(N)c(C(=O)c3cc(OC)c(OC)c(OC)c3)[nH]c2cc1OC | HT29 colon | Y |
| O=C(N/N=C\c1ccccc1O)C1CC1 | HT29 colon | N |
| Cn1cc(-c2nc(-c3cn(C)c4ncccc34)cs2)c2cc(F)ccc21 | HT29 colon | Y |
| C=C1C(=O)O[C@H]2[C@H]1CC/C(COC(=O)NCc1c[nH]c3ccccc13)=C\CC[C@@]1(C)O[C@@H]21 | HT29 colon | Y |
| CCCC1CCCCN1C(=O)OCC(C)C (stereo not drawn) | HT29 colon | N |
| Cc1cc(C=O)c(C)c2c1[nH]c1ccccc12 | HT29 colon | N |
| Cc1ccc(-c2nc([P+](c3ccccc3)(c3ccccc3)c3ccccc3)c(N3C[C@H]4C[C@H](C3)c3cccc(=O)n3C4)o2)cc1 | HT29 colon | N |
| N=c1c(S(=O)(=O)c2ccccc2)cc2c(=O)n3ccccc3nc2n1C1CCCC1 | HT29 colon | N |
| CC(=O)n1c(/C(C#N)=C/c2ccc(N(C)C)cc2)cc2ccccc21 | HT29 colon | Y |
| O=c1[nH]c(=S)[nH]c2nc[nH]c12 | HT29 colon | N |
| Cc1csc(-c2ccc3c(c2)COC3(CCCN(C)C)c2ccc(F)cc2)c1 (stereo not drawn) | HT29 colon | Y |
| CN(C)c1cccc2[nH]c(-c3[nH]ncc3Nc3ccnc(N)n3)nc12 | HT29 colon | Y |
| Nc1c(C(=O)Nc2cccc(Cl)c2)sc2ncc(Cl)cc12 | HT29 colon | N |
| CC(C)=CCC/C(C)=C/CC/C(C)=C/CC/C(C)=C/CSC[C@H](NC(=O)CCCCCN1CCN(C)CC1)C(=O)NC1CCCCC1 | HT29 colon | Y |
| OCC1OC(n2cnc3c(Cl)ncnc32)CC1O (stereo not drawn) | HT29 colon | N |
| C=C(C)[C@@H]1CC[C@]2(C(=O)O)CC[C@]3(C)[C@H](CC[C@@H]4[C@@]5(C)C/C(=C/c6cccc(I)c6)C(=O)C(C)(C)[C@@H]5CC[C@]43C)[C@@H]12 | HT29 colon | Y |
| COC(=O)[C@]12CC[C@@H](C(C)=O)[C@@H]1[C@H]1CC[C@@H]3[C@@]4(C)C/C(=C/c5cccnc5)C(=O)C(C)(C)[C@@H]4CC[C@@]3(C)[C@]1(C)CC2 | HT29 colon | Y |
| N#C/C(=C\c1ccc(-c2ccc(Br)cc2)o1)c1nc(-c2cccs2)cs1 | HT29 colon | N |
| CC(c1ccccc1)N1C(=O)C(C2SC(=S)N(C(C)c3ccccc3)C2=O)SC1=S (stereo not drawn) | HT29 colon | N |
| O=C1/C(=C\C(Cl)=C/c2ccc([N+](=O)[O-])cc2)SC(=S)N1CCc1ccc(O)cc1 | HT29 colon | Y |
| CN(CSc1ccc(Cl)cc1)c1ccc(CSc2ccc(Cl)cc2)cc1 | HT29 colon | N |
| COc1cccc(-c2nn(-c3ccccc3)cc2-c2ccnc(NCCCNS(=O)(=O)c3ccc(C(F)(F)F)cc3)c2)c1 | HT29 colon | Y |
